B1: PEX5 peptide 240-255 (Peroxisomal targeting signal 1 receptor), 16-mer library wild type / PEX14 Pex14 (PEX14 PEX14, residues 16-84) (parent)
chain 1: AEQWAAEFIQQQGTSD
chain 2: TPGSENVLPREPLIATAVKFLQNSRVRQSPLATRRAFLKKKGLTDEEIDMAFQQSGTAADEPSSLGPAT

variants of: B1; test: proteomic peptide phage display deep mutational scan (ProP-PD DMS): M13 P8 16-mer library selected against immobilised GST-tagged bait for four days (rounds), NGS of the eluted pools per day and pseudo-replica; conditions: with PEX14 Pex14 (PEX14 PEX14, residues 16-84); bait immobilised on MaxiSorp plates (10 µg), library pre-cleared on GST, 2 h binding at 4 °C, five washes; one round per day, days 1-4; value from days 2 and 3; keep out of graded; scale: average fractional NGS count over selection days 2 and 3
Could you label it Fulfilled if measured screen value is 0.0001 or higher, and Not fulfilled otherwise?

| mutant_name | qualitative_label |
| --- | --- |
| chain 1 E7N | Fulfilled |
| chain 1 W4Q | Not fulfilled |
| chain 1 E7R | Fulfilled |
| chain 1 F8V | Not fulfilled |
| chain 1 Q12N | Fulfilled |
| chain 1 F8D | Fulfilled |
| chain 1 Q3F | Not fulfilled |
| chain 1 Q3E | Fulfilled |
| chain 1 A5P | Fulfilled |
| chain 1 E2Q | Not fulfilled |
| chain 1 W4N | Not fulfilled |
| chain 1 E7F | Fulfilled |
| chain 1 I9S | Fulfilled |
| chain 1 W4D | Fulfilled |
| chain 1 A1G | Not fulfilled |
| chain 1 W4G | Not fulfilled |
| chain 1 Q12T | Fulfilled |
| chain 1 A1F | Fulfilled |
| chain 1 A1L | Fulfilled |
| chain 1 I9P | Fulfilled |
| chain 1 E7S | Fulfilled |
| chain 1 S15E | Fulfilled |
